# credit: patent US20230026696A1

For each entry below, report its IC50 value.
Target: UniProt:O75762
Sequence (O75762 whole entry): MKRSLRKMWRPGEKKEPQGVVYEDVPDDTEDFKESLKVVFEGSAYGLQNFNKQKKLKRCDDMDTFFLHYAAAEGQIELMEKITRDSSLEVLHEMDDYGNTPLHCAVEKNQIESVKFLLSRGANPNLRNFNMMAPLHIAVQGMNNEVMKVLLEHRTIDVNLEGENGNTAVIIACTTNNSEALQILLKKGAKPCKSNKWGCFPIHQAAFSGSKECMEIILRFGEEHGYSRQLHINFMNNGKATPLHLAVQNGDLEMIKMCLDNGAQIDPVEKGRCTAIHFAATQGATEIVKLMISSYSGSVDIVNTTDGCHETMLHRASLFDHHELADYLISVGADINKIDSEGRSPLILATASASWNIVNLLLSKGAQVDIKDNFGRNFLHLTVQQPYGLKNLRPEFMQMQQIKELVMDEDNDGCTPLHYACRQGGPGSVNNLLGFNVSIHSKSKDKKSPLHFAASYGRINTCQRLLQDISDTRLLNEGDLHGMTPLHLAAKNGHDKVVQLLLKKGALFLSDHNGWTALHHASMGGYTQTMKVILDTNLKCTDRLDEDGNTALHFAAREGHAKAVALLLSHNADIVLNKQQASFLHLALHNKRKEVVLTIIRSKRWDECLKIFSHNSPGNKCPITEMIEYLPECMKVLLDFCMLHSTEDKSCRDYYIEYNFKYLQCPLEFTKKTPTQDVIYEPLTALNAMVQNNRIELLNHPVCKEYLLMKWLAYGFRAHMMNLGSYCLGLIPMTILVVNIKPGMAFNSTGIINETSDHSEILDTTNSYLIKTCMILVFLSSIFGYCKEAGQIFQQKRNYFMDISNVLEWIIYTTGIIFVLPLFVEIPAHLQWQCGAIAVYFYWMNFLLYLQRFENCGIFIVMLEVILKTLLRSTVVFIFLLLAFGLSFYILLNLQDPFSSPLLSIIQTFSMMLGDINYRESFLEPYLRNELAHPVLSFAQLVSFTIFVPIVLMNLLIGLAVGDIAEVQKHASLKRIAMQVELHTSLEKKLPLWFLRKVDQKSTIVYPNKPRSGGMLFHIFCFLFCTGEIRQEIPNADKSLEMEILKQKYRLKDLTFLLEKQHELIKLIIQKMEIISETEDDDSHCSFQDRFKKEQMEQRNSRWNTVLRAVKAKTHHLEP
Test: Selectivity Ca2+ flux assay, TRPA1 stably over-expressed in HEK-293 cells
Details: agonist 2,4-ditert butylphenol (50 μM)
Where a name gives a salt, the structure may show the parent alone.
Give your result in µM as a bare value.

Lab note: measured IC50 of N#Cc1ccc(OCC2(CO)CN(S(=O)(=O)c3ccc(Cl)cc3Cl)C2)cc1F was 52

Lab note: measured IC50 of Cl.N#Cc1ccc(OCC2(N)CN(S(=O)(=O)c3ccc(Cl)cc3Cl)C2)cc1F [Compound 52, hydrochloride salt] was 89.6

Lab note: measured IC50 of CNCC1(COc2ccc(C#N)c(F)c2)CN(S(=O)(=O)c2ccc(Cl)cc2Cl)C1 [Compound 16, hydrochloride] was 20.7
